Target: 5-HT-1A serotonin receptor (Rattus norvegicus, UniProt P19327)
Construct: Hippocampal tissue is dissected and homogenized on ice; from tissue; host or cells: rat hippocampal membrane homogenate
Assay: ex vivo inhibition of 5-HT-1A serotonin receptor binding (3H-8-OH-DPAT, hippocampal membranes)
Set-up: species or system rats
Counter-ions that a name gives are not always drawn.
Measurement name: Ki (nM)
Give bare numbers, in nM.

Give recorded Ki. O=C1C2C3C=CC(C4CCC34)C2C(=O)N1CCCCN1CCN(c2ncccn2)CC1 (stereo not shown) [Example 16, dihydrochloride, hydrate] 1.1

----------
Molecular target: 5-HT-1A serotonin receptor (Rattus norvegicus, UniProt P19327)
Construct: Hippocampal tissue is dissected and homogenized on ice; from tissue; host or cells: rat hippocampal membrane homogenate
Sequence (P19327 1-422): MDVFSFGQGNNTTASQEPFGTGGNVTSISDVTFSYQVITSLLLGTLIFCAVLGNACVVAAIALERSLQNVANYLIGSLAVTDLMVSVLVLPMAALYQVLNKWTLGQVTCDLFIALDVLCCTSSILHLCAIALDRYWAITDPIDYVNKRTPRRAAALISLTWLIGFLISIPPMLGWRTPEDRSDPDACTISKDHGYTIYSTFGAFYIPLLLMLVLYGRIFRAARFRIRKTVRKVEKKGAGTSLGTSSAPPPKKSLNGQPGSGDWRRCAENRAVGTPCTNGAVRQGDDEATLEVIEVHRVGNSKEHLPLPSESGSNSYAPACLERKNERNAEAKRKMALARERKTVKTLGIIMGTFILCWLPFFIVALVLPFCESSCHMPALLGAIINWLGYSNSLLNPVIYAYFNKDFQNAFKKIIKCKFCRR
Experiment: ex vivo inhibition of 5-HT-1A serotonin receptor binding (3H-8-OH-DPAT, hippocampal membranes)
Design: species or system rats
Settings: Table 4; 3H-8-OH-DPAT; rat hippocampal tissue; read-out: Inhibition Constant (Ki nm)
Structures can show the parent of a compound that is named as a salt.
Measurement name: pKi
Numbers only, as −log10 of the molar value.

O=C1C2C3C=CC(CCCC3)C2C(=O)N1CCCCN1CCN(c2cncc(Cl)n2)CC1 (stereo not drawn) [Example 8, dihydrochloride, sesquihydrate]    6.91
O=C1C2C3C=CC(C4CCC34)C2C(=O)N1CCCCN1CCN(c2cnccn2)CC1 (stereo not drawn) [Example 27, dihydrochloride, hemihydrate]    7.39
O=C1C2C3CCC(C4CC43)C2C(=O)N1CCCCN1CCN(c2ncccn2)CC1 (stereo not drawn) [Example 7, dihydrochloride, dihydrate]    7.86
O=C1C2C3C=CC(C4CC34)C2C(=O)N1CCCCN1CCN(c2cncc(Cl)n2)CC1 (stereo not drawn) [Example 1, dihydrochloride, sesquihydrate]    6.79
O=C1C2C3C=CC(CCC3)C2C(=O)N1CCCCN1CCN(c2ncccn2)CC1 (stereo not drawn) [Example 21, dihydrochloride, hemihydrate]    7.92

Give pKi; test system 5-HT-1A serotonin receptor (Rattus norvegicus, UniProt P19327); molecule O=C1C2C3C=CC(C4C=CC43)C2C(=O)N1CCCCN1CCN(c2ncccn2)CC1 (stereo not drawn) [Example 3, dihydrochloride, sesquihydrate] 7.77

----------
Hi there, I'd appreciate the recorded inhibition at 1 µM for every entry that follows.
Biological target: limbic D-2 dopamine receptor (Rattus norvegicus)
Construct: Limbic brain tissue (nucleus accumbens, septal area, olfactory tubercle) is dissected; from tissue; host or cells: rat limbic brain tissue (nucleus accumbens, septal area, olfactory tubercle) homogenate
Sequence (P61169 whole entry): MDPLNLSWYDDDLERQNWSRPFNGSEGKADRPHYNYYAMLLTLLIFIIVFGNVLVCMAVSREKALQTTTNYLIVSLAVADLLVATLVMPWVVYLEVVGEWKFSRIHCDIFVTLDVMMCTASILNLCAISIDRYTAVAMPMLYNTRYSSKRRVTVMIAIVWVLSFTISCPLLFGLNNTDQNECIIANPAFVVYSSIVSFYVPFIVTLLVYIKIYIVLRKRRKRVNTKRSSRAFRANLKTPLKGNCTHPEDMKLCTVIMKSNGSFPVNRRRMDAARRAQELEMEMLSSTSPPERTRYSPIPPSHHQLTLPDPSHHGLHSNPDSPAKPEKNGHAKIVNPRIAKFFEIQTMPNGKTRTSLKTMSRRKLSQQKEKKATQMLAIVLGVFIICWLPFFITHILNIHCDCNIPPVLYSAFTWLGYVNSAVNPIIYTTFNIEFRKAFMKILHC
Assay: biochemical
Type: binding, rats
Details: read-out: Limbic D-2 Binding, % inhibition at 1 µM
Counter-ions that a name gives are not always drawn.
One number for each entry, in %.

Here's what some known entries look like.
O=C1C2C3C=CC(C3)C2C(=O)N1CCCCN1CCN(c2cncc(Cl)n2)CC1 (centres unmarked) [Example 13, hydrochloride hydrate]    1
O=C1C2C3C=CC(C3)C2C(=O)N1CCCCN1CCN(c2ccc(Cl)nn2)CC1 (centres unmarked) [Example 17, hydrochloride, dihydrate]    19
O=C1C2C3C=CC(C4CC34)C2C(=O)N1CCCCN1CCN(c2cnccn2)CC1 (centres unmarked) [Example 24, dihydrochloride, hydrate]    38
O=C1C2C3C=CC(C4CCC34)C2C(=O)N1CCCCN1CCN(c2cnccn2)CC1 (centres unmarked) [Example 27, dihydrochloride, hemihydrate]    41
Cl.O=C1C2C3CCC(C4CC43)C2C(=O)N1CCCCN1CCN(c2cncc(Cl)n2)CC1 (centres unmarked) [Example 25, hydrochloride]    49

Give measured inhibition at 1 µM for every item shown.
1. O=C1C2C3C=CC(CCC3)C2C(=O)N1CCCCN1CCN(c2ncccn2)CC1 (centres unmarked) [Example 21, dihydrochloride, hemihydrate]
2. Cl.O.O=C1C2C3C=CC(CCC3)C2C(=O)N1CCCCN1CCN(c2cncc(Cl)n2)CC1 (centres unmarked) [Example 22, hydrochloride, hydrate]
3. O=C1C2C3C=CC(C3)C2C(=O)N1CCCCN1CCN(c2nccnc2Cl)CC1 (centres unmarked) [Example 18, hydrate]
4. Cl.O=C1C2C3CCC(C4CC43)C2C(=O)N1CCCCN1CCN(c2nccnc2Cl)CC1 (centres unmarked) [Example 26, hydrochloride]
5. Cl.O.O=C1C2C3C=CC(CCCC3)C2C(=O)N1CCCCN1CCN(c2nccnc2Cl)CC1 (centres unmarked) [Example 20, hydrochloride, hydrate]
6. O=C1C2C3C=CC(C4C=CC43)C2C(=O)N1CCCCN1CCN(c2cnccn2)CC1 (centres unmarked) [Example 23]

1. 53
2. 43
3. 48
4. 75
5. 78
6. 13
